# reported Stimulation; entries follow
molecular target: GABA-A receptor; alpha-1/beta-2/gamma-2 (Rattus norvegicus) (UniProt P18508+P62813+P63138); assay: Percent stimulation of Cl- current in Xenopus laevis oocytes expressing rat GABA-A alpha-1-beta-2-gamma-2 subunits at 100 uM; type: functional, cell-based; conditions: Oocyte

[
  {
    "Molecule": "Cc1ccc(S(=O)(=O)N2CCc3ccccc3[C@@H]2[C@H]2CCC(=O)O2)cc1 (stereo in doubt)",
    "Stimulation [%]": 859
  },
  {
    "Molecule": "O=C1CC[C@H]([C@H]2c3ccccc3CCN2S(=O)(=O)c2ccc(Cl)cc2)O1 (racemic)",
    "Stimulation [%]": 479
  },
  {
    "Molecule": "Cc1ccc(S(=O)(=O)N2CCc3ccccc3[C@@H]2[C@H]2CCC(=O)O2)cc1 (racemic)",
    "Stimulation [%]": 579
  },
  {
    "Molecule": "CS(=O)(=O)N1CCc2ccccc2[C@@H]1[C@H]1CCC(=O)O1",
    "Stimulation [%]": 32
  },
  {
    "Molecule": "O=C1CC[C@H]([C@H]2c3ccccc3CCN2C(=O)OCc2ccccc2)O1 (racemic)",
    "Stimulation [%]": 351
  },
  {
    "Molecule": "O=C1CC[C@H]([C@H]2c3ccccc3CCN2S(=O)(=O)c2ccc3ccccc3c2)O1",
    "Stimulation [%]": 118
  },
  {
    "Molecule": "O=C1CC[C@H]([C@H]2c3ccccc3CCN2S(=O)(=O)c2ccc(C(F)(F)F)cc2)O1",
    "Stimulation [%]": 90
  },
  {
    "Molecule": "Cc1ccc(S(=O)(=O)N2CCc3ccccc3[C@@H]2[C@H]2CCC(=O)O2)cc1 (stereo in doubt; 2c)",
    "Stimulation [%]": 184
  },
  {
    "Molecule": "O=C1CC[C@H]([C@H]2c3ccccc3CCN2S(=O)(=O)c2cccs2)O1",
    "Stimulation [%]": 353
  },
  {
    "Molecule": "O=C1CC[C@H]([C@H]2c3ccccc3CCN2S(=O)(=O)c2ccccc2)O1 (racemic)",
    "Stimulation [%]": 423
  },
  {
    "Molecule": "CN(C)S(=O)(=O)N1CCc2ccccc2[C@@H]1[C@H]1CCC(=O)O1",
    "Stimulation [%]": 62
  }
]

The origin of these recorded values is ChEMBL document CHEMBL1133518.
